# TEST SYSTEM: Beta-1 adrenergic receptor (Homo sapiens)
# ASSAY DETAILS: Antagonist activity at beta1 adrenergic receptor (unknown origin) stably expressed in HEK293 cell membranes assessed as inhibition of isoproterenol-induced cAMP production preincubated for 15 mins followed by isoproterenol addition and measured after 30 mins by TR-FRET assay
VALUE TYPE: pIC50
Please keep in mind that pIC50 is minus log10 of the molar concentration; only the number is needed.

Here are 3 molecules together with their reported answers.
> print(dat)
                               smiles.entry  reading
1  CC(C)NC[C@H](O)COc1ccccc1CCCC(=O)NCCCCNC(=O)CCCc1ccccc1OC[C@@H](O)CNC(C)C     6.74
2  CC(C)NC[C@H](O)COc1ccccc1CCn1cc(CNCc2cn(CCc3ccccc3OC[C@@H](O)CNC(C)C)nn2)nn1     7.71
3  CC(C)NC[C@H](O)COc1ccccc1CCCCCCCCCCCCc1ccccc1OC[C@@H](O)CNC(C)C     7.86

Consider the record given below.
Record summary for CC(C)NC[C@H](O)COc1ccccc1CCC(=O)NCCNC(=O)CCc1ccccc1OC[C@@H](O)CNC(C)C : reported pIC50 = 5.69

====

# Organism: Homo sapiens
# ASSAY DETAILS: Selectivity ratio of IC50 for antagonist activity at beta1 adrenergic receptor (unknown origin) stably expressed in HEK293 cell membranes to IC50 for antagonist activity at beta2 adrenergic receptor (unknown origin) stably expressed in HEK293 cell membranes
# Assay type: cell-based
Each entry gets NO if its Ratio IC50 stays under 20, and YES if its Ratio IC50 is 20 or above.

> print(dat)
                               smiles.entry  cat
1  CC(C)NC[C@H](O)COc1ccccc1CCC(=O)NCCNC(=O)CCc1ccccc1OC[C@@H](O)CNC(C)C  YES
2  CC(C)NC[C@H](O)COc1ccccc1CCCCNC(=O)NCCCCc1ccccc1OC[C@@H](O)CNC(C)C   NO
3  CC(C)NC[C@H](O)COc1ccccc1CCC(=O)NCCCNC(=O)CCc1ccccc1OC[C@@H](O)CNC(C)C  YES
4  CC(C)NC[C@H](O)COc1ccccc1CCCCCNC(=O)NCCCCCc1ccccc1OC[C@@H](O)CNC(C)C   NO

Tell me whether Ratio IC50 is at least 20 here: CC(C)NC[C@H](O)COc1ccccc1CCCCCCCCCCc1ccccc1OC[C@@H](O)CNC(C)C
NO

Does the molecule CC(C)NC[C@H](O)COc1ccccc1OCCOCCOCCOc1ccccc1OC[C@@H](O)CNC(C)C have recorded Ratio IC50 that is 20 or more?
NO

====

# TEST SYSTEM: Beta-1 adrenergic receptor (Homo sapiens, UniProt P08588)
# Sequence (P08588 whole entry): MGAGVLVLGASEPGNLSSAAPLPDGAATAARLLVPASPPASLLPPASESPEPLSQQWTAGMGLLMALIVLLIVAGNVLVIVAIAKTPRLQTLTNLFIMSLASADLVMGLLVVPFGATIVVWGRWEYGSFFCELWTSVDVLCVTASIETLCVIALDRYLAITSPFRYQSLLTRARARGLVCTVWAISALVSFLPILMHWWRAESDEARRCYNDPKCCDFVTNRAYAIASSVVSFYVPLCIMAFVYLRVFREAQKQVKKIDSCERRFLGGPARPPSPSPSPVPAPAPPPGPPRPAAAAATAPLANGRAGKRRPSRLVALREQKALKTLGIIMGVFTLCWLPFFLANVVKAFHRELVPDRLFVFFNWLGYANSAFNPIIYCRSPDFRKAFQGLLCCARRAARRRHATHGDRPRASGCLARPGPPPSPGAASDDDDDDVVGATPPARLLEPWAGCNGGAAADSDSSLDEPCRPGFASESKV
# ASSAY DETAILS: Antagonist activity at beta1 adrenergic receptor (unknown origin) stably expressed in HEK293 cell membranes assessed as inhibition of isoproterenol-induced cAMP production preincubated for 15 mins followed by isoproterenol addition and measured after 30 mins by TR-FRET assay
VALUE TYPE: pIC50
Here pIC50 is given on a logarithmic scale as minus log10 of the concentration in mol/L.

Known pIC50 results, listed for orientation:
> print(dat)
                               smiles.entry                               test.system  reading
1  CC(C)NC[C@H](O)COc1ccccc1OCCOCCOc1ccccc1OC[C@@H](O)CNC(C)C  Beta-1 adrenergic receptor (Homo sapiens, UniProt P08588)     6.63
2  CC(C)NC[C@H](O)COc1ccccc1CCCCNC(=O)NCCCCc1ccccc1OC[C@@H](O)CNC(C)C  Beta-1 adrenergic receptor (Homo sapiens, UniProt P08588)     7.84
3  CC(C)NC[C@H](O)COc1ccccc1CCCCCCc1ccccc1OC[C@@H](O)CNC(C)C  Beta-1 adrenergic receptor (Homo sapiens, UniProt P08588)     7.56

The recorded pIC50 with Beta-1 adrenergic receptor (Homo sapiens, UniProt P08588) for CC(C)NC[C@H](O)COc1ccccc1CCCCCNC(=O)NCCCCCc1ccccc1OC[C@@H](O)CNC(C)C was 8.25

Test item CC(C)NC[C@H](O)COc1ccccc1CCCn1cc(CNCc2cn(CCCc3ccccc3OC[C@@H](O)CNC(C)C)nn2)nn1 ; Beta-1 adrenergic receptor (Homo sapiens, UniProt P08588); reported pIC50 was 8.33

Noted pIC50 for CC(C)NC[C@H](O)COc1ccccc1CCCCCCCCc1ccccc1OC[C@@H](O)CNC(C)C , tested on Beta-1 adrenergic receptor (Homo sapiens, UniProt P08588): 7.70

Record for CC(C)NC[C@H](O)COc1ccccc1CCCC(=O)NCCNC(=O)CCCc1ccccc1OC[C@@H](O)CNC(C)C under target or system Beta-1 adrenergic receptor (Homo sapiens, UniProt P08588): pIC50 reported as 7.58

pIC50 value, target or system Beta-1 adrenergic receptor (Homo sapiens, UniProt P08588), for CC(C)NC[C@H](O)COc1ccccc1Cn1cc(CNCc2cn(Cc3ccccc3OC[C@@H](O)CNC(C)C)nn2)nn1 : 6.31

====

# TEST SYSTEM: Beta-1 adrenergic receptor (Homo sapiens, UniProt P08588)
# ASSAY DETAILS: Antagonist activity at beta1 adrenergic receptor (unknown origin) stably expressed in HEK293 cell membranes assessed as inhibition of isoproterenol-induced cAMP production preincubated for 15 mins followed by isoproterenol addition and measured after 30 mins by TR-FRET assay
VALUE TYPE: IC50 (nM)
Answer format: numeric, nM implied, no suffix.

> print(dat)
                               smiles.entry  measurement.units  reading
1  CC(C)NC[C@H](O)COc1ccccc1-n1cc(CNCc2cn(-c3ccccc3OC[C@@H](O)CNC(C)C)nn2)nn1                 nM     3630
2  CC(C)NC[C@@H](O)COc1ccccc1CCCC(=O)NCCNC(=O)CCCc1ccccc1OC[C@H](O)CNC(C)C                 nM     4470
3  CC(C)NC[C@H](O)COc1ccccc1CCCNC(=O)NCCCc1ccccc1OC[C@@H](O)CNC(C)C                 nM      372
4  CC(C)NC[C@H](O)COc1ccccc1OCCOCCOCCOc1ccccc1OC[C@@H](O)CNC(C)C                 nM     97.7
5  CC(C)NC[C@H](O)COc1ccccc1CCCCCCCCCCc1ccccc1OC[C@@H](O)CNC(C)C                 nM     11.2
6  CC(C)NC[C@H](O)COc1ccccc1CCC(=O)NCCCNC(=O)CCc1ccccc1OC[C@@H](O)CNC(C)C                 nM     1780
7  CC(C)NC[C@H](O)COc1ccccc1CCNC(=O)NCCc1ccccc1OC[C@@H](O)CNC(C)C                 nM      126
8  CC(C)NC[C@H](O)COc1ccccc1CCCC(=O)NCCCNC(=O)CCCc1ccccc1OC[C@@H](O)CNC(C)C                 nM     28.2

// switching to the query molecule
IC50 measured on CC(C)NC[C@H](O)COc1ccccc1CC(=O)NCCNC(=O)Cc1ccccc1OC[C@@H](O)CNC(C)C = 11000

====

# TEST SYSTEM: Beta-2 adrenergic receptor (Homo sapiens, UniProt P07550)
# Sequence (P07550 whole entry): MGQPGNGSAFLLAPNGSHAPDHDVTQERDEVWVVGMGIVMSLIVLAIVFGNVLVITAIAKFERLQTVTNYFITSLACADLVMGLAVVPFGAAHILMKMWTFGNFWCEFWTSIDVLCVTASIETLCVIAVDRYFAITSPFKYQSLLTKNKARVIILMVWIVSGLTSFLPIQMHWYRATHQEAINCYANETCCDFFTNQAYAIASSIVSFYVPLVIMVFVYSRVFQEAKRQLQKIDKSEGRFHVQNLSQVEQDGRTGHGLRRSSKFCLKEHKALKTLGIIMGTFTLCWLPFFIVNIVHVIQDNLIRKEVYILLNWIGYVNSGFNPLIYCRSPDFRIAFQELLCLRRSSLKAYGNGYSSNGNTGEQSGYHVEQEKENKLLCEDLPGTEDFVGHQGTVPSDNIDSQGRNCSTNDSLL
# ASSAY DETAILS: Displacement of [3H]DHA from beta2 adrenergic receptor (unknown origin) stably expressed in HEK293 cell membranes measured after 90 mins by scintillation counting analysis
VALUE TYPE: Ki (nM)
Dear colleague, please return just the value in nM, with no unit written.

> print(dat)
                               smiles.entry  measurement.units  reading
1  CC(C)NC[C@H](O)COc1ccccc1CCCC(=O)NCCNC(=O)CCCc1ccccc1OC[C@@H](O)CNC(C)C                 nM     1.29

With those in mind, consider the next molecule.
Ki on Beta-2 adrenergic receptor (Homo sapiens, UniProt P07550) for CC(C)NC[C@H](O)COc1ccccc1CCCNC(=O)NCCCc1ccccc1OC[C@@H](O)CNC(C)C is 1.91

====

# Species on record: Homo sapiens
# ASSAY DETAILS: Selectivity ratio of IC50 for antagonist activity at beta1 adrenergic receptor (unknown origin) stably expressed in HEK293 cell membranes to IC50 for antagonist activity at beta2 adrenergic receptor (unknown origin) stably expressed in HEK293 cell membranes
# Format: cell-based
Ratio IC50 vs 4: less than gives t; not less than gives f.

Study these solved cases before continuing.
> print(dat)
                               smiles.entry  cat
1  CC(C)NC[C@H](O)COc1ccccc1CCCC(=O)NCCCNC(=O)CCCc1ccccc1OC[C@@H](O)CNC(C)C    f
2  CC(C)NC[C@H](O)COc1ccccc1CCCNC(=O)NCCCc1ccccc1OC[C@@H](O)CNC(C)C    f
3  CC(C)NC[C@H](O)COc1ccccc1Cn1cc(CNCc2cn(Cc3ccccc3OC[C@@H](O)CNC(C)C)nn2)nn1    f
4  CC(C)NC[C@H](O)COc1ccccc1CCNC(=O)NCCc1ccccc1OC[C@@H](O)CNC(C)C    f
5  CC(C)NC[C@H](O)COc1ccccc1CCCCCCc1ccccc1OC[C@@H](O)CNC(C)C    f

API: query returns whether the compound falls strictly under 4 in Ratio IC50. Query: CC(C)NC[C@H](O)COc1ccccc1CCCn1cc(CNCc2cn(CCCc3ccccc3OC[C@@H](O)CNC(C)C)nn2)nn1
t
